testTarget: T1, ECD of murine IGSF11, recombinant biotinylated (mouse, UniProt P0C673 23-240)
T1 construct: whole entry named; also called Mouse IGSF11
T1 sequence: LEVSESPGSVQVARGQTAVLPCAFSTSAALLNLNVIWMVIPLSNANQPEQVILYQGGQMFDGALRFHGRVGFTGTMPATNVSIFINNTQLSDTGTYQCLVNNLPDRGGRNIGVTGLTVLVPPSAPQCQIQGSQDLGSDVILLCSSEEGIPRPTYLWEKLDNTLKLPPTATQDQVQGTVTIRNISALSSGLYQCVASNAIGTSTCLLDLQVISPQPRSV
protocolDetails: ELISA RFU>1.0
quantityKind: ELISA binding signal (RFU)

Worked set:
INSERT INTO measurements (binder, quantitykind, endpointresult) VALUES
  ('A-035 (scFv format) (scFv, V domains shown, scFv) VH: QVQLVQSGAEVKKPGASVKVSCKASGYTFTGYYMHWVRQAPGQGLEWMGWINPNSGNTGYAQKFQGRVTMTRNTSISTAYMELSSLRSEDTAVYYCARGRLERGYWYFDLWGRGTLVTVSS VL: NFMLTQPHSVSESPGRTVTISCTRSSGSITSNYVQWYQQRPGSAPTILIYEDKERPSEVPDRFSGSIDISSNSASLTISGLKTEDEADYYCQSYGGTSQGVLFGGGTKVTVL', 'ELISA binding signal (RFU)', '> 1 rfu'),
  ('A-008 (scFv format) (scFv, V domains shown, scFv) VH: QLQLQESGPGLVKPSETLSLTCTVSGGSISSSGYYWGWIRQPPGKGLEWIGSIYYSGSTYYNPSLKSRVTISVDTSKNQFSLKLSSVTAADTAVYYCARHRVRFGEFDAFDIWGQGTMVTVSS VL: QAVLTQPPSVSGAPGERVTLSCTGTSSNVGADFDVHWYQQFPGTAPRLLIFGSDNRPSGVPDRFSGSKSGTSASLAITGLQVEDEADYYCQAYDVRLSGWVFGGGTKLTVL', 'ELISA binding signal (RFU)', '> 1 rfu');

As a next step, examine the binder that follows.
(Q) Need ELISA binding signal (RFU) of A-004 (scFv format) (scFv, V domains shown, scFv) VH: EVQLVESGGGLVKPGGSLRLSCAASGFTFSSYSMNWVRQAPGKGLEWVSSISSSSSYIYYADSVKGRFTISRDNAKNSLYLQMNSLRAEDTAVYYCARGQLLWFGESALIDAFDIWGQGTMVTVSS VL: EIVLTQSPSSLSASVGDRVTITCRASQSISSYLNWYQLKPGKAPKLLIYAASILQSGVPSRFSGSGSGTDFTLTISSLQPEDFAAYYCQQSYSTPRTFGQGTKLEIK , thanks.
(A) > 1 rfu
